Tested on: biotinyl-Ile-oxazolone
PROCEDURE_TEXT: self-aminoacylation, catalytic enhancement (BIO) (fold over background); higher = more active; k-Seq, kA / k0A0; sequences stand for … in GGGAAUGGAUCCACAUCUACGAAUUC…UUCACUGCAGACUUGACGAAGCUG
Fewer inactive variants are shown than the library holds.
ASSAY_METRIC: self-aminoacylation
Just the number, please, no unit attached.

// worked examples, self-aminoacylation included
AAGUUUGCAAAUAGUCUCAAG [Fam3.1 aminoacylation ribozyme variant]    0.987
CCGCACUUCAAGCACUCGGUC [Fam1B.1 aminoacylation ribozyme variant]    1.38
AAUACCGUGGUCAUCGAGUGA [Fam2.1 aminoacylation ribozyme variant]    2.89

*Q* GET /values?readout=self-aminoacylation&item= AUUCGCCUGGGUCAUCGGGUG [Fam2.2 aminoacylation ribozyme variant]
*A* 6

*Q* Please look up its self-aminoacylation: AUUACCCUGGUCACCGGGUGA [Fam2.1 aminoacylation ribozyme variant]
*A* 6.24

*Q* Reported self-aminoacylation, sequence GUUCACCUAGGCCAUCGGGUG [Fam2.2 aminoacylation ribozyme variant] : ____
*A* 3.17

*Q* Please give the measured self-aminoacylation for this sequence: AUUACCGUGAUCAUCGAGUGA [Fam2.1 aminoacylation ribozyme variant]
*A* 4.18

*Q* Sample AAGCUUGCUAAAAGUCGCAAG [Fam3.1 aminoacylation ribozyme variant] — what was its self-aminoacylation?
*A* 2.16

*Q* Which self-aminoacylation is listed for CCACACUUCAAGGACUCGGUC [Fam1B.1 aminoacylation ribozyme variant] ?
*A* 1.02
